Tested on: CD2F1 mice, L1210 leukemia ip, survival T/C
ASSAY_TEXT: NCI In Vivo Anticancer Drug Screen. Data for tumor model L1210 Leukemia (intraperitoneal) in CD2F1 (CDF1) mice
CONDITION: endpoint: mean survival time; dose: 100.0 mg/kg/injection; schedule: Q04DX003 (ip); vehicle: saline with Tween-80; higher = longer survival
Inconclusive results and toxic doses are left out.
MEASUREMENT_NAME: T/C

MOLECULE	T/C
O=C1N(C2CCCCC2)CC2C(c3ccccc3)NNC12O (centres undefined)	97 % of control
CCOC(=O)c1sc(N)c(C(=O)OCC)c1C	95 % of control
O=[N+]([O-])c1ccc(C2C3C(c4ccccc4)=NCN32)cc1 (centres undefined)	96 % of control

Query: Supply reported T/C belonging to this molecule: "CC(C)(C)N/C(=C/C(=O)c1ccccc1)c1ccccc1"
Response: 94 % of control

Query: Supply reported T/C belonging to this molecule: "CCc1ccc(NC(=O)c2ccccc2C(=O)O)cc1"
Response: 101 % of control

Query: Supply reported T/C belonging to this molecule: "C[N+]1(C)CCS(=O)(=O)CC1"
Response: 94 % of control

Query: Supply reported T/C belonging to this molecule: CC(C)CC(Br)C(=O)NCC(=O)O (centres undefined)
Response: 95 % of control

Query: Supply reported T/C belonging to this molecule: "O=C(O)CSc1nc2ccccc2s1"
Response: 93 % of control

Query: Supply reported T/C belonging to this molecule: "CCOC(=O)CC1OCCO1"
Response: 98 % of control

Query: Supply reported T/C belonging to this molecule: CCCCCCCCCCCCCCCCCS(=O)S(=O)O (centres undefined)
Response: 98 % of control

Query: Supply reported T/C belonging to this molecule: O=C(O)C(c1ccccc1)C(F)(F)F (centres undefined)
Response: 108 % of control

Query: Supply reported T/C belonging to this molecule: CC1(CO)CCCC2(C)C3=C(CCCC3)CCC12 (centres undefined)
Response: 101 % of control

Query: Supply reported T/C belonging to this molecule: "CC(C)(C)OC(=O)NCCCC(=O)O"
Response: 93 % of control

Query: Supply reported T/C belonging to this molecule: "CCOC(=N)CCCl"
Response: 106 % of control

====

Listed compounds paired with reported T/C
System: CD2F1 mice, L1210 leukemia ip, survival T/C
ASSAY_TEXT: NCI In Vivo Anticancer Drug Screen. Data for tumor model L1210 Leukemia (intraperitoneal) in CD2F1 (CDF1) mice
CONDITION: endpoint: mean survival time; dose: 100.0 mg/kg/injection; schedule: Q04DX003 (ip); vehicle: saline; higher = longer survival
Inconclusive results and toxic doses are left out.

Query: Supply reported T/C belonging to this compound: "CN=C(N)N=C(N)N"
Response: 103 % of control

Query: Supply reported T/C belonging to this compound: "COc1ccc(CCNC(=O)Cc2ccc(OC)c(OC)c2)cc1OC"
Response: 96 % of control

====

System: CD2F1 mice, L1210 leukemia ip, survival T/C
ASSAY_TEXT: NCI In Vivo Anticancer Drug Screen. Data for tumor model L1210 Leukemia (intraperitoneal) in CD2F1 (CDF1) mice
CONDITION: endpoint: mean survival time; dose: 200.0 mg/kg/injection; schedule: Q04DX003 (ip); vehicle: saline with Tween-80; higher = longer survival
Inconclusive results and toxic doses are left out.
MEASUREMENT_NAME: T/C

COMPOUND	TARGET_SYSTEM	OBSERVED_RESULT
CC1=Nc2cc(Cl)c(Cl)cc2N(C)/C1=C/C1=C(Cl)C(=O)c2cc3c(Cl)ccc(Cl)c3cc2C1=O	CD2F1 mice, L1210 leukemia ip, survival T/C	97 % of control
CCCC/C=C/C(O)CC (configuration not stated)	CD2F1 mice, L1210 leukemia ip, survival T/C	102 % of control
Clc1ccc(N=Cc2ccccc2Cl)cc1	CD2F1 mice, L1210 leukemia ip, survival T/C	113 % of control
O=C(O)/C(=C(/c1ccccc1)c1ccc(Cl)cc1)c1ccccc1	CD2F1 mice, L1210 leukemia ip, survival T/C	96 % of control
NC(=O)/C=C1\NC(=O)CS1	CD2F1 mice, L1210 leukemia ip, survival T/C	91 % of control
C#CCN(CC#C)C(=O)CCCCCCCCC=C	CD2F1 mice, L1210 leukemia ip, survival T/C	92 % of control
C[N+]1(C)CCS(=O)(=O)CC1	CD2F1 mice, L1210 leukemia ip, survival T/C	95 % of control
O=C1OC(c2ccccc2)(c2ccccn2)c2ccccc21 (configuration not stated)	CD2F1 mice, L1210 leukemia ip, survival T/C	88 % of control
CCCCCCC(C)=O	CD2F1 mice, L1210 leukemia ip, survival T/C	96 % of control
CCCCCN1C(=O)CCC1=O	CD2F1 mice, L1210 leukemia ip, survival T/C	109 % of control

Query: GET T/C where system = CD2F1 mice, L1210 leukemia ip, survival T/C and item = "Cc1ccc(S(=O)(=O)NC(=O)c2ccccc2)cc1"
Response: 102 % of control

Query: GET T/C where system = CD2F1 mice, L1210 leukemia ip, survival T/C and item = O=C(O)/C=C/C(=O)Nc1cc2c(cc1Br)-c1ccccc1C2O (configuration not stated)
Response: 102 % of control

Query: GET T/C where system = CD2F1 mice, L1210 leukemia ip, survival T/C and item = "Cc1cc(C)c(NC(=O)c2cccc(Cl)c2)c(C)c1"
Response: 96 % of control

Query: GET T/C where system = CD2F1 mice, L1210 leukemia ip, survival T/C and item = "CC(C)C1C(=O)CCCC1=O"
Response: 105 % of control

Query: GET T/C where system = CD2F1 mice, L1210 leukemia ip, survival T/C and item = "NC(=O)N/N=C/c1cccs1"
Response: 87 % of control

Query: GET T/C where system = CD2F1 mice, L1210 leukemia ip, survival T/C and item = "CCCCCCCCCCCCCCCCCCNC(=O)Nc1ccc(CC)cc1"
Response: 89 % of control

Query: GET T/C where system = CD2F1 mice, L1210 leukemia ip, survival T/C and item = "COc1cc(OC)c(OC)cc1Br"
Response: 102 % of control

Query: GET T/C where system = CD2F1 mice, L1210 leukemia ip, survival T/C and item = "CCOC(=O)C(=CNc1ccc(C)cn1)C(=O)OCC"
Response: 95 % of control

Query: GET T/C where system = CD2F1 mice, L1210 leukemia ip, survival T/C and item = "CCOC(=O)CC1(O)CCCCC1"
Response: 101 % of control

Query: GET T/C where system = CD2F1 mice, L1210 leukemia ip, survival T/C and item = "COc1ccc(Cl)cc1[N+](=O)[O-]"
Response: 94 % of control

Query: GET T/C where system = CD2F1 mice, L1210 leukemia ip, survival T/C and item = Cc1cc(C)c(C(=O)C2Oc3ccccc3C2c2ccccc2)c(C)c1 (configuration not stated)
Response: 102 % of control

Query: GET T/C where system = CD2F1 mice, L1210 leukemia ip, survival T/C and item = "CS(=O)(=O)OCCn1c(=O)n(CCOS(C)(=O)=O)c(=O)n(CCOS(C)(=O)=O)c1=O"
Response: 98 % of control

Query: GET T/C where system = CD2F1 mice, L1210 leukemia ip, survival T/C and item = "COC(=O)c1ncccc1C(=O)O"
Response: 86 % of control

Query: GET T/C where system = CD2F1 mice, L1210 leukemia ip, survival T/C and item = "Nc1ccc(N=Nc2ccc(S(=O)(=O)O)cc2)cc1"
Response: 93 % of control

Query: GET T/C where system = CD2F1 mice, L1210 leukemia ip, survival T/C and item = "Cc1ccc(S(=O)(=O)Nc2ccc(I)cc2)cc1"
Response: 94 % of control

Query: GET T/C where system = CD2F1 mice, L1210 leukemia ip, survival T/C and item = "CCCOC(=O)c1ccc(NC(=O)Nc2ccc(C(=O)OCC)cc2)cc1"
Response: 86 % of control

Query: GET T/C where system = CD2F1 mice, L1210 leukemia ip, survival T/C and item = "C=C(CC(=O)O)C(=O)O"
Response: 98 % of control

====

Tested on: CD2F1 mice, L1210 leukemia ip, survival T/C
ASSAY_TEXT: NCI In Vivo Anticancer Drug Screen. Data for tumor model L1210 Leukemia (intraperitoneal) in CD2F1 (CDF1) mice
CONDITION: endpoint: mean survival time; dose: 25.0 mg/kg/injection; schedule: Q01DX005 (ip); vehicle: other; higher = longer survival
Toxic doses and inconclusive results are not listed.
MEASUREMENT_NAME: T/C

// solved cases for T/C follow
MOLECULE	OBSERVED_RESULT
OCC1OC(n2cnc3c(N4CCCC4)ncnc32)C(O)C1O (stereo not given)	101 % of control
C#CCNc1ncnc2c1ncn2C1OC(CO)C(O)C1O (stereo not given)	97 % of control
COC(=O)c1cc([N+](=O)[O-])c(Sc2ncnc3nc[nH]c23)c([N+](=O)[O-])c1	95 % of control
Cn1c(=O)[nH]c2c(nc(-c3ccc(Cl)cc3)n2C)c1=O	100 % of control

Query: Supply reported T/C belonging to this molecule: CCCCCCC[CH2][Sn][CH2]CCCCCCC.Nc1ncnc2c1ncn2C1OC(CO)C2[OH+][OH+]C21 (stereo not given)
Response: 110 % of control
